system: CCRF-CEM leukemia; experiment: NCI tumour cell line growth inhibition, 48 h

| COMPOUND | TGI |
| --- | --- |
| CC(C)(CO)CNc1cc(Cl)nc(N)n1 | > 100 µM |
| COC(=O)c1cc(C)[nH]c2c(C)cc3nc4ccccc4c3c12 | 86.4 µM |
| Cc1nc2sc(C(=O)Nc3ccccc3)c(N)c2cc1C(=O)c1ccccc1 | > 50 µM |
| Cn1c2ccccc2c2c3c(c4c5ccccc5n(C)c4c21)C(=O)N(c1ccccc1)C3=O | > 100 µM |
| Cc1cc(O)c(C(C)C)cc1C(=S)Nc1ccc(Cl)cc1 | 16.7 µM |
| COc1ccc2c(c1)C=CC1C2CC[C@]2(C)C(NC(=O)/C=C/c3ccc(O)c(O)c3)CCC12 (stereo partly drawn) | 19.5 µM |
| O=C1CC2OCC=C3CN4CCC5(C(=O)O)C(N1)C2C3CC45 (stereo not drawn) | > 100 µM |
| Cc1c(Cl)cccc1NC(=O)C(=O)c1c(O)c2ccc(O)cc2oc1=O | > 100 µM |
| COC1CC(n2cc(F)c(N)nc2=O)OC1CO (stereo not drawn) | > 100 µM |
| Cc1ccc(C)c(NC(=O)C(=O)Nn2c(=S)[nH]c3ccccc3c2=O)c1 | > 100 µM |
| OCC(S)CS.[Bi] (stereo not drawn) | 5.22 µM |
| COc1cc(-c2nc(SC)nc3c2CCc2ccccc2-3)cc(OC)c1OC | > 100 µM |
| C[C@H]1CCC2C(OC(=O)[C@@H]2CN(C)C)[C@]2(C)C(=O)C=CC12O (stereo partly drawn) | 9.22 µM |
